Field: MIC. Provide a value for each of the compounds that follow.
- Tested on: NRS119
- procedure.text: MIC/MBC broth microdilution, NRS119
- Type: cell-based
- experimental.setup: Staphylococcus aureus; Table 8; NRS119; read-out: MIC
Numeric only. Scale: µM

Test system NRS119; read-out MIC; what value for `CCCCC#Cc1ccc(-c2nc(C)c(/C(C)=N/NC(=N)N)s2)cc1` ?
4

Test system NRS119; read-out MIC; what value for `CCCCc1ccc(-c2nc(C)c(/C(C)=N/NC(=N)N)s2)cc1` ?
8

---

- Test system: MRSA USA500 (NRS385)
- procedure.text: MIC/MBC broth microdilution, NRS385 (USA500)
- Type: cell-based
- experimental.setup: Staphylococcus aureus; Table 8; NRS385; read-out: MIC
outcome.measure: MIC (µM)
Numeric only. Scale: µM

# MIC lookup, item `CCCCc1ccc(-c2nc(C)c(/C(C)=N/NC(=N)N)s2)cc1`
4

# MIC lookup, item `CC(=O)c1ccc(-c2ccc(-c3nc(C)c(/C(C)=N\NC(=N)N)s3)cc2)cc1`
16

# MIC lookup, item `C/C(=N/NC(=N)N)c1sc(-c2ccc(-c3ccc(F)cc3)cc2)nc1C`
16

# MIC lookup, item `C/C(=N/NC(=N)N)c1sc(-c2ccc(-c3ccc(C(F)(F)F)cc3)cc2)nc1C`
8
